assay: toxicity testing, dermal LD50; settings: in vivo, topical or ocular
endpoint label: LD50

1. c1cc2cscc2s1 [Thieno[3,4-b]thiophene] | 200 to 400 mg/kg
2. CC(C)(C)c1cc2cscc2s1 [2-tert-butyl-thieno[3,4-b]thiophene] | > 400 mg/kg
